Attribution: the supplement of paper PMC10266784

B1: library; numbered along this chain (parent)
chain: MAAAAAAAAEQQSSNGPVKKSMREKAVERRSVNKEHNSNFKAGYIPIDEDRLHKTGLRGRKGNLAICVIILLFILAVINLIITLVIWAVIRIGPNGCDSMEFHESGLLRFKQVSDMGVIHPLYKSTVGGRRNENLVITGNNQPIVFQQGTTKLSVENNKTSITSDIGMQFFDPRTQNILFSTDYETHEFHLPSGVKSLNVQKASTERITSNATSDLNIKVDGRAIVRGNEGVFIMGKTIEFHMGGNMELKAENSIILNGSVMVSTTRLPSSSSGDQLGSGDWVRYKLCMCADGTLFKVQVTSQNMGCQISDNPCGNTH

variants of: B1; test: SGCB cell-surface expression functional score (HA stain, bin4 vs bin1, normalised to synonymous) (log10 ratio); higher = more cell-surface SGCB (functional)
Everything with SGCB cell-surface expression functional score (log10) lower than -0.3 is -1; everything else, including exactly -0.3, is 1.

[in] Entry `S272G` : is its SGCB cell-surface expression functional score (log10) no less than -0.3?
[out] 1

[in] Entry `W282H` : is its SGCB cell-surface expression functional score (log10) no less than -0.3?
[out] 1

[in] Entry `M22S` : is its SGCB cell-surface expression functional score (log10) no less than -0.3?
[out] 1

[in] Entry `Q169M` : is its SGCB cell-surface expression functional score (log10) no less than -0.3?
[out] -1

[in] Entry `A4H` : is its SGCB cell-surface expression functional score (log10) no less than -0.3?
[out] 1

[in] Entry `N177S` : is its SGCB cell-surface expression functional score (log10) no less than -0.3?
[out] 1

[in] Entry `M235S` : is its SGCB cell-surface expression functional score (log10) no less than -0.3?
[out] 1

[in] Entry `H120G` : is its SGCB cell-surface expression functional score (log10) no less than -0.3?
[out] -1

[in] Entry `S105K` : is its SGCB cell-surface expression functional score (log10) no less than -0.3?
[out] -1

[in] Entry `I137C` : is its SGCB cell-surface expression functional score (log10) no less than -0.3?
[out] -1

[in] Entry `A65N` : is its SGCB cell-surface expression functional score (log10) no less than -0.3?
[out] 1

[in] Entry `E104C` : is its SGCB cell-surface expression functional score (log10) no less than -0.3?
[out] 1

[in] Entry `S272V` : is its SGCB cell-surface expression functional score (log10) no less than -0.3?
[out] 1

[in] Entry `V220F` : is its SGCB cell-surface expression functional score (log10) no less than -0.3?
[out] 1

[in] Entry `P46I` : is its SGCB cell-surface expression functional score (log10) no less than -0.3?
[out] 1

[in] Entry `E24W` : is its SGCB cell-surface expression functional score (log10) no less than -0.3?
[out] 1

[in] Entry `D275G` : is its SGCB cell-surface expression functional score (log10) no less than -0.3?
[out] 1

[in] Entry `I119Q` : is its SGCB cell-surface expression functional score (log10) no less than -0.3?
[out] -1

[in] Entry `N211S` : is its SGCB cell-surface expression functional score (log10) no less than -0.3?
[out] 1

[in] Entry `Q276F` : is its SGCB cell-surface expression functional score (log10) no less than -0.3?
[out] 1

[in] Entry `Y44M` : is its SGCB cell-surface expression functional score (log10) no less than -0.3?
[out] 1

[in] Entry `I74P` : is its SGCB cell-surface expression functional score (log10) no less than -0.3?
[out] 1

[in] Entry `M243H` : is its SGCB cell-surface expression functional score (log10) no less than -0.3?
[out] 1

[in] Entry `V127K` : is its SGCB cell-surface expression functional score (log10) no less than -0.3?
[out] -1

[in] Entry `N95P` : is its SGCB cell-surface expression functional score (log10) no less than -0.3?
[out] -1

[in] Entry `V283P` : is its SGCB cell-surface expression functional score (log10) no less than -0.3?
[out] 1

[in] Entry `N79V` : is its SGCB cell-surface expression functional score (log10) no less than -0.3?
[out] 1

[in] Entry `I70E` : is its SGCB cell-surface expression functional score (log10) no less than -0.3?
[out] 1

[in] Entry `I144F` : is its SGCB cell-surface expression functional score (log10) no less than -0.3?
[out] -1

[in] Entry `K297R` : is its SGCB cell-surface expression functional score (log10) no less than -0.3?
[out] 1

[in] Entry `L75I` : is its SGCB cell-surface expression functional score (log10) no less than -0.3?
[out] 1

[in] Entry `E49C` : is its SGCB cell-surface expression functional score (log10) no less than -0.3?
[out] 1

[in] Entry `F171A` : is its SGCB cell-surface expression functional score (log10) no less than -0.3?
[out] -1

[in] Entry `L64W` : is its SGCB cell-surface expression functional score (log10) no less than -0.3?
[out] 1

[in] Entry `E35Y` : is its SGCB cell-surface expression functional score (log10) no less than -0.3?
[out] 1

[in] Entry `D275Q` : is its SGCB cell-surface expression functional score (log10) no less than -0.3?
[out] -1

[in] Entry `S14D` : is its SGCB cell-surface expression functional score (log10) no less than -0.3?
[out] 1

[in] Entry `E104I` : is its SGCB cell-surface expression functional score (log10) no less than -0.3?
[out] 1

[in] Entry `S273P` : is its SGCB cell-surface expression functional score (log10) no less than -0.3?
[out] -1

[in] Entry `M235E` : is its SGCB cell-surface expression functional score (log10) no less than -0.3?
[out] 1

[in] Entry `S260F` : is its SGCB cell-surface expression functional score (log10) no less than -0.3?
[out] 1

[in] Entry `R174V` : is its SGCB cell-surface expression functional score (log10) no less than -0.3?
[out] -1

[in] Entry `G128T` : is its SGCB cell-surface expression functional score (log10) no less than -0.3?
[out] -1

[in] Entry `T209Q` : is its SGCB cell-surface expression functional score (log10) no less than -0.3?
[out] -1

[in] Entry `K250V` : is its SGCB cell-surface expression functional score (log10) no less than -0.3?
[out] 1

[in] Entry `A203R` : is its SGCB cell-surface expression functional score (log10) no less than -0.3?
[out] -1
